system: Rhizopus arrhizus; test: Antifungal activity against Rhizopus oryzae 05-203111 after 24 to 72 hrs by broth microdilution method; format: functional
Measurement kind: MIC (µg/mL)
Give just the numeric value; µg/mL need not be written.

CCCCCc1cc[n+](CCCCCCCCCCCC[n+]2ccc(CCCCC)c(CCCCC)c2)cc1CCCCC.[Cl-].[Cl-] : 1.86

Noted for CCCCCCc1cc[n+](CCCCCCCCCCCC[n+]2ccc(CCCCCC)cc2)cc1.[Cl-].[Cl-] : its MIC reads 0.79

Recorded MIC (molecule CCCCC(CCCC)c1cc[n+](CCCCCCCCCCCC[n+]2ccc(C(CCCC)CCCC)c(C)c2)cc1C.[Cl-].[Cl-] ): 3.7

// sample CCCCCc1cccc[n+]1CCCCCCCCCCCC[n+]1ccccc1CCCCC.[Cl-].[Cl-] , its MIC was 2.96

Given item C=CCCCc1cc[n+](CCCCCCCCCCCC[n+]2ccc(CCCC=C)cc2)cc1.[Cl-].[Cl-] , the value recorded as its MIC is 5.9

MIC in this record for CCCCCc1cc[n+](CCCCCCCCCCCC[n+]2ccc(CCCCC)cc2)cc1.[Cl-].[Cl-] : 1.48

Data point: CC(C)(C)CCc1cc[n+](CCCCCCCCCCCC[n+]2ccc(CCC(C)(C)C)cc2)cc1.[Cl-].[Cl-] ; MIC = 6.3

Data point: [Cl-].[Cl-].c1ccc(CCCc2cc[n+](CCCCCCCCCCCC[n+]3ccc(CCCc4ccccc4)cc3)cc2)cc1 ; MIC = 0.87

So, CC(C)CCc1cc[n+](CCCCCCCCCCCC[n+]2ccc(CCC(C)C)cc2)cc1.[Cl-].[Cl-] ? Its MIC was 5.9

# MIC of CCCCCc1cc[n+](CCCCCCCCCCCC[n+]2ccc(CCCCC)c(C)c2)cc1C.[Cl-].[Cl-] = 1.58
